Molecular target: sEH (Homo sapiens, UniProt P34913)
Sequence (P34913 1-555): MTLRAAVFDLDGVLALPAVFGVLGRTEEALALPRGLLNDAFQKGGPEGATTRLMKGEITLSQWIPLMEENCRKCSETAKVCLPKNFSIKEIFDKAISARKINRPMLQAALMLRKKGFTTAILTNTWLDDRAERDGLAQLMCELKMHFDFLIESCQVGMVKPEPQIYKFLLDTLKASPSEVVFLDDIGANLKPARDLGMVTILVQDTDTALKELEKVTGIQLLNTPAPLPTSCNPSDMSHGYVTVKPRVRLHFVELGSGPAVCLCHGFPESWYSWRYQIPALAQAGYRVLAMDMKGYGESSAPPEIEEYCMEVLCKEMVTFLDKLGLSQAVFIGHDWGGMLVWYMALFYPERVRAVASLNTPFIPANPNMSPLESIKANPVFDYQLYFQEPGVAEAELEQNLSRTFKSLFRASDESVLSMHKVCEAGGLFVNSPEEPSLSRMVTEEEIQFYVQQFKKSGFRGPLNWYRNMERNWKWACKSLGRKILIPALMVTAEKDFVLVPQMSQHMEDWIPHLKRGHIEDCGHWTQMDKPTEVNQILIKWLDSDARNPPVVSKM
assay metric: Ki
Please answer in the form of a number followed by its unit of measurement.

Inquiry: Dear colleague, I am looking for the recorded Ki of the following molecule: COc1cc([C@@H]2Oc3c(OC)cc(/C=C/C(=O)NCCc4ccc(O)cc4)cc3[C@H]2C(=O)NCCc2ccc(O)cc2)ccc1O [Compound 5, grossamide]
Reply text: 1500 nM

----------
Target chain: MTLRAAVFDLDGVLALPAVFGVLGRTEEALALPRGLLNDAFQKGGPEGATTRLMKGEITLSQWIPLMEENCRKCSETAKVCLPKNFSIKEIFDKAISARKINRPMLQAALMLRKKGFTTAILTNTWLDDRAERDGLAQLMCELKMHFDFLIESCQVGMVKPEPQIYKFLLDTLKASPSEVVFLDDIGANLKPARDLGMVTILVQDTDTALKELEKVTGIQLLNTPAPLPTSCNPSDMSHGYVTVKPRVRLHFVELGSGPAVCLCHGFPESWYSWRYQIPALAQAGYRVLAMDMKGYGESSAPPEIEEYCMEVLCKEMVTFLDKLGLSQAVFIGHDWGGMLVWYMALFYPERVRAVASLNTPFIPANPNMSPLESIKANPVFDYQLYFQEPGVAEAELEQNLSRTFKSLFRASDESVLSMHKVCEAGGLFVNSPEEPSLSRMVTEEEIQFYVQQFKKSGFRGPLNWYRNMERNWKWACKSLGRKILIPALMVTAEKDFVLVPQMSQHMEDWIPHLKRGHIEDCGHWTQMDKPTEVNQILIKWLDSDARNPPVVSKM
assay metric: IC50 (µM)
Answer format: numeric, µM implied, no suffix.

Inquiry: Dear colleague, I am looking for the recorded IC50 of the following compound: COc1cc([C@@H]2Oc3c(OC)cc(/C=C/C(=O)NCCc4ccc(O)cc4)cc3[C@H]2C(=O)NCCc2ccc(O)cc2)ccc1O [Compound 5, grossamide]
Reply text: 3.3
